Tested on: HEK-293T
Test: Multiplex assay against HEK293T
Assay type: toxicity, cell-based
Conditions: human, 48 h, 1 µM, compound concentration 1 uM, replicate 1
Measured Total Cell Count, listed per entry.
PROPERTY MEASURED: Total Cell Count

| MOLECULE | ASSAY VALUE |
| --- | --- |
| CC(C)NC(=O)N1CC[C@H](NC2=Nc3cc(F)ccc3N(CC(F)F)c3ccc(Cl)cc32)C1 | 189 |
| CC(C)c1noc(N2CCC(COc3ccc(-c4ccc(S(C)(=O)=O)cc4)nc3)CC2)n1 | 377 |
| CC(C)(C)NC[C@H](O)COc1nsnc1N1CCOCC1 | 373 |
| CCCSc1nc(N[C@@H]2C[C@H]2c2ccc(F)c(F)c2)c2nnn([C@@H]3C[C@H](OCCO)[C@@H](O)[C@H]3O)c2n1 | 216 |
| Cl.O=C(O)c1cc(-c2ccc(C3CCNCC3)cc2)c2ccc(-c3ccc(C(F)(F)F)cc3)cc2c1 | 166 |
| Cc1ccc2c(c1)c1c(n2CCc2ccc(C)nc2)CCN(C)C1 [LATREPIRDINE] | 332 |
| CNC(=O)Nc1ccc(-c2nc(N3CC4CCC(C3)O4)c3cnn(C4CCC5(CC4)OCCO5)c3n2)cc1 | 144 |
| CC1=C(C(=O)Nc2cc3cn[nH]c3cc2F)C(c2ccc(C(F)(F)F)cc2)CC(=O)N1 (stereo not given) | 530 |
| COc1ccccc1CN[C@H]1C2CCN(CC2)[C@H]1C(c1ccccc1)c1ccccc1 | 334 |
| COc1cc2ncn(-c3cc(OCc4ccccc4C(F)(F)F)c(C(N)=O)s3)c2cc1OC [GW843682X] | 248 |
| CCc1ccc(OCc2ccccc2C(=O)Nc2ccc3nc(C)cc(N)c3c2)cc1.Cl | 155 |
| COc1ccc(-c2ccc3ncc4c(c3c2)n(-c2ccc(N3CCNCC3)c(C(F)(F)F)c2)c(=O)n4C)cn1.O=C(O)/C=C\C(=O)O | 380 |
| Cc1ccc(C)c(Oc2ccncc2C(=O)N2CCN(C3CC3)c3ccccc32)c1 | 567 |
| Cc1cccc(CN2CCN(C(c3ccccc3)c3ccc(Cl)cc3)CC2)c1.Cl.Cl (stereo not given) | 244 |
| Cc1ccccc1C(c1ccccc1C)N1C2CCC1CC(O)(c1ccccc1)C2 (stereo not given) | 301 |

###

Measured Population Mitotic Cells (%), listed per entry.
System: Fibroblast
Assay: Multiplex assay against human fibroblast
Format: toxicity, cell-based
Conditions: 48 h, 10 µM, compound concentration 10 uM, replicate 2

| COMPOUND | Population Mitotic Cells (%) |
| --- | --- |
| COc1cc(Nc2nccc(-c3cnn4nc(OC)ccc34)n2)cc(C(F)(F)F)c1 | 50 |
| CC(C)(C)NC[C@H](O)COc1nsnc1N1CCOCC1 | 66 |
| CC(C)c1noc(N2CCC(COc3ccc(-c4ccc(S(C)(=O)=O)cc4)nc3)CC2)n1 | 33 |
| CC(C)Oc1ccccc1C(=O)Nc1ccccc1C(=O)Nc1cccc(S(=O)(=O)C(F)(F)F)c1 | 50 |
| Cl.O=C(O)c1cc(-c2ccc(C3CCNCC3)cc2)c2ccc(-c3ccc(C(F)(F)F)cc3)cc2c1 | 0 |
| CCOC(=O)Nc1cc(-c2ccc(C)c(NS(C)(=O)=O)c2)nn2c(C)nnc12 | 0 |
| CC(C)NC(=O)N1CC[C@H](NC2=Nc3cc(F)ccc3N(CC(F)F)c3ccc(Cl)cc32)C1 | 0 |
| CCc1nn(CCCN2CCN(c3cccc(Cl)c3)CC2)c(=O)n1CCOc1ccccc1.Cl [NEFAZODONE HYDROCHLORIDE] | 50 |
| O=C(c1cc2c(cc1F)OC(c1ccc(F)cc1)(c1ccc(Cl)cc1Cl)O2)N1CCOCC1 (stereo unspecified) | 18 |
| CN1CCN(Cc2ccc(Nc3ncc(Cl)c(Nc4ccccc4S(=O)(=O)N(C)C)n3)cc2)CC1 | 50 |
| C[C@]12CC[C@@H]3c4ccc(O)cc4CC[C@H]3[C@@H]1CC[C@@H]2O | 100 |
| COc1ccccc1CN[C@H]1C2CCN(CC2)[C@H]1C(c1ccccc1)c1ccccc1 | 75 |
| CNC(=O)Nc1ccc(-c2nc(N3CC4CCC(C3)O4)c3cnn(C4CCC5(CC4)OCCO5)c3n2)cc1 | 66 |
| Cc1c[nH]c2nccc(Oc3c(F)cc(Nc4cc(Cl)nc(N)n4)cc3F)c12 | 42 |
| CC(C)OC(=O)N1CCC(Oc2ncnc3c2cnn3-c2ccc(S(C)(=O)=O)cc2F)CC1 | 33 |
| CCc1ccc(OCc2ccccc2C(=O)Nc2ccc3nc(C)cc(N)c3c2)cc1.Cl | 0 |
| COc1ccc(-c2ccc3ncc4c(c3c2)n(-c2ccc(N3CCNCC3)c(C(F)(F)F)c2)c(=O)n4C)cn1.O=C(O)/C=C\C(=O)O | 75 |
| CCCSc1nc(N[C@@H]2C[C@H]2c2ccc(F)c(F)c2)c2nnn([C@@H]3C[C@H](OCCO)[C@@H](O)[C@H]3O)c2n1 | 25 |
| Cc1ccc2c(c1)c1c(n2CCc2ccc(C)nc2)CCN(C)C1 [LATREPIRDINE] | 0 |
| Cc1cccc(CN2CCN(C(c3ccccc3)c3ccc(Cl)cc3)CC2)c1.Cl.Cl (stereo unspecified) | 50 |
| O=c1cc(N2CCOCC2)oc2c(-c3cccc4c3sc3ccccc34)cccc12 | 35 |
| Cc1ccccc1C(c1ccccc1C)N1C2CCC1CC(O)(c1ccccc1)C2 (stereo unspecified) | 0 |
| C#Cc1cccc(Nc2ncnc3cc(OCCOC)c(OCCOC)cc23)c1 | 50 |
| CC1=C(C(=O)Nc2cc3cn[nH]c3cc2F)C(c2ccc(C(F)(F)F)cc2)CC(=O)N1 (stereo unspecified) | 37 |
| COc1cc2ncn(-c3cc(OCc4ccccc4C(F)(F)F)c(C(N)=O)s3)c2cc1OC [GW843682X] | 50 |
| COC(=O)C1=C(C)NC(C)=C(C(=O)OCCCN2CCC(c3ccccc3)(c3ccccc3)CC2)[C@H]1c1cccc([N+](=O)[O-])c1 | 9 |

###

System: HEK-293T
Experiment: Multiplex assay against HEK293T
Format: toxicity, cell-based
Conditions: human, 12 h, 10 µM, compound concentration 10 uM, replicate 2
PROPERTY MEASURED: Population Healthy Nuclei (%)

| COMPOUND | MEASUREMENT UNIT | ASSAY VALUE |
| --- | --- | --- |
| Cc1nc(N2CC[C@H](O)C2)ncc1-c1cc(C(F)(F)F)cc2[nH]ncc12 | % | 88 |
| CC1=C(C(=O)Nc2cc3cn[nH]c3cc2F)C(c2ccc(C(F)(F)F)cc2)CC(=O)N1 (centres undefined) | % | 37 |
| Cc1cccc(CN2CCN(C(c3ccccc3)c3ccc(Cl)cc3)CC2)c1.Cl.Cl (centres undefined) | % | 38 |
| Cc1ccc(C)c(Oc2ccncc2C(=O)N2CCN(C3CC3)c3ccccc32)c1 | % | 14 |
| COc1ccccc1CN[C@H]1C2CCN(CC2)[C@H]1C(c1ccccc1)c1ccccc1 | % | 36 |
| Cc1c[nH]c2nccc(Oc3c(F)cc(Nc4cc(Cl)nc(N)n4)cc3F)c12 | % | 42 |
| C=CC(=O)Nc1cccc(Oc2nc(Nc3ccc(N4CCN(C)CC4)cc3OC)ncc2Cl)c1 | % | 86 |
| O=C(c1cc2c(cc1F)OC(c1ccc(F)cc1)(c1ccc(Cl)cc1Cl)O2)N1CCOCC1 (centres undefined) | % | 8 |
| CN1CCN(Cc2ccc(Nc3ncc(Cl)c(Nc4ccccc4S(=O)(=O)N(C)C)n3)cc2)CC1 | % | 59 |

###

Measured Population Healthy Nuclei (%), listed per entry.
System: U2OS
Assay: Multiplex assay against U2OS
Type: toxicity, cell-based
Conditions: human, 12 h, 10 µM, compound concentration 10 uM, replicate 2
PROPERTY MEASURED: Population Healthy Nuclei (%)

| ENTRY SMILES | MEASUREMENT UNIT | ASSAY VALUE |
| --- | --- | --- |
| COc1ccc(-c2ccc3ncc4c(c3c2)n(-c2ccc(N3CCNCC3)c(C(F)(F)F)c2)c(=O)n4C)cn1.O=C(O)/C=C\C(=O)O | % | 9 |
| CCCSc1nc(N[C@@H]2C[C@H]2c2ccc(F)c(F)c2)c2nnn([C@@H]3C[C@H](OCCO)[C@@H](O)[C@H]3O)c2n1 | % | 79 |
| CNC(=O)Nc1ccc(-c2nc(N3CC4CCC(C3)O4)c3cnn(C4CCC5(CC4)OCCO5)c3n2)cc1 | % | 54 |
| CC(C)(C)NC[C@H](O)COc1nsnc1N1CCOCC1 | % | 79 |

###

Tested on: Fibroblast
Test: Multiplex assay against human fibroblast
Assay type: toxicity, cell-based
Settings: 12 h, 10 µM, compound concentration 10 uM, replicate 1

| ENTRY SMILES | MEASUREMENT UNIT | Population Pyknosed Nuclei (%) |
| --- | --- | --- |
| C=CC(=O)Nc1ccc2[nH]c(=O)n(C3CCN(Cc4ccc(-c5nc6cc[nH]c(=O)c6cc5-c5ccccc5)cc4)CC3)c2c1 | % | 16 |
| CC(C)CC(=O)Nc1[nH]nc2c1CN(C(=O)C1CCN(C)CC1)C2(C)C | % | 10 |
| Cc1nc(N2CC[C@H](O)C2)ncc1-c1cc(C(F)(F)F)cc2[nH]ncc12 | % | 14 |
| CC(C)Oc1ccccc1C(=O)Nc1ccccc1C(=O)Nc1cccc(S(=O)(=O)C(F)(F)F)c1 | % | 25 |
| O=c1cc(N2CCOCC2)oc2c(-c3cccc4c3sc3ccccc34)cccc12 | % | 36 |
| CC(C)c1noc(N2CCC(COc3ccc(-c4ccc(S(C)(=O)=O)cc4)nc3)CC2)n1 | % | 33 |
| C[C@]12CC[C@@H]3c4ccc(O)cc4CC[C@H]3[C@@H]1CC[C@@H]2O | % | 18 |
| Cl.O=C(O)c1cc(-c2ccc(C3CCNCC3)cc2)c2ccc(-c3ccc(C(F)(F)F)cc3)cc2c1 | % | 32 |
| COc1cc(Nc2nccc(-c3cnn4nc(OC)ccc34)n2)cc(C(F)(F)F)c1 | % | 17 |
| CC(C)NC(=O)N1CC[C@H](NC2=Nc3cc(F)ccc3N(CC(F)F)c3ccc(Cl)cc32)C1 | % | 29 |
| CC(C)OC(=O)N1CCC(Oc2ncnc3c2cnn3-c2ccc(S(C)(=O)=O)cc2F)CC1 | % | 34 |
| C=CC(=O)Nc1cccc(Sc2nc(Nc3ccc(N4CCN(C)CC4)cc3)ncc2Cl)c1 | % | 15 |
| CNC(=O)Nc1ccc2c(c1)[C@@]1(CC2)OC(=O)N(CC(=O)N(Cc2ccc(F)cc2)[C@@H](C)C(F)(F)F)C1=O | % | 14 |
| CCc1ccc(OCc2ccccc2C(=O)Nc2ccc3nc(C)cc(N)c3c2)cc1.Cl | % | 65 |
| CNC(=O)Nc1ccc(-c2nc(N3CC4CCC(C3)O4)c3cnn(C4CCC5(CC4)OCCO5)c3n2)cc1 | % | 41 |
| COc1ccc(-c2ccc3ncc4c(c3c2)n(-c2ccc(N3CCNCC3)c(C(F)(F)F)c2)c(=O)n4C)cn1.O=C(O)/C=C\C(=O)O | % | 69 |
| C=CC(=O)Nc1cccc(Oc2nc(Nc3ccc(N4CCN(C)CC4)cc3OC)ncc2Cl)c1 | % | 18 |

Data provenance: ChEMBL document CHEMBL4689842
